Assay overview: Minimum inhibitory concentration against Haemophilus influenzae ATCC 51907
Type: functional
Below is a list of entries, each paired with its recorded MIC value.
Write the value in µg/mL as a bare number.

QUERY: State its MIC: `O=C1O[C@@H](Cn2cc(/C=C/Br)nn2)CN1c1ccc(C2=CCS(=O)(=O)CC2)c(F)c1`
RESULT: 8

QUERY: State its MIC: `C#Cc1cn(C[C@H]2CN(c3ccc(C4=CCS(=O)(=O)CC4)c(F)c3)C(=O)O2)nn1`
RESULT: 2

QUERY: State its MIC: `CC(=O)NC[C@H]1CN(c2ccc(C3=CCS(=O)(=O)CC3)c(F)c2)C(=O)O1`
RESULT: 1

QUERY: State its MIC: `N#CCc1cn(C[C@H]2CN(c3ccc(C4=CCS(=O)(=O)CC4)c(F)c3)C(=O)O2)nn1`
RESULT: 2
